- TARGET_ENTITY: T1, human CAPRIN-1 protein expressed on cell membrane surfaces of human cancer cells (human, UniProt Q14444 2-709)
- T1 construct: whole, on cells; Endogenous protein on human cancer cells; Flow cytometry was done without permeation of the cell membranes
- T1 sequence (looked up): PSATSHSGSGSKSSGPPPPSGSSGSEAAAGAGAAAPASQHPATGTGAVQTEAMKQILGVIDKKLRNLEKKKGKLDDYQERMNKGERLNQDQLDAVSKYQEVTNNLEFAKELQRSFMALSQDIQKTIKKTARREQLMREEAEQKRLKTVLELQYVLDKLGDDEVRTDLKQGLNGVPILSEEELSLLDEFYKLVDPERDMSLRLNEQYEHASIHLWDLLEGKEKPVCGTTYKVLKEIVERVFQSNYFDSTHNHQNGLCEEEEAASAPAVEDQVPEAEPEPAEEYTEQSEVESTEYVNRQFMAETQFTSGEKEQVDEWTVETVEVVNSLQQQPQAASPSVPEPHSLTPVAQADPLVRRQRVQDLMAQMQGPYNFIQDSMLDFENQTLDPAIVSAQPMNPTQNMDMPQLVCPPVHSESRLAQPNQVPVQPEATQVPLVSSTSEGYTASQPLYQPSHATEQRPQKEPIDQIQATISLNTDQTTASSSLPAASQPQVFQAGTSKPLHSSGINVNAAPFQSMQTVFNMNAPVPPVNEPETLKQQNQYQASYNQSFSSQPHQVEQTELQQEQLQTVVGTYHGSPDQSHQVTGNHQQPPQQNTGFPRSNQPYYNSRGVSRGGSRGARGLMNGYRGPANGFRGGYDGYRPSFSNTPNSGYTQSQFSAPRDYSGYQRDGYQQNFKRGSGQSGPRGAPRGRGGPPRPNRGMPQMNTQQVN
- METHOD_SUMMARY: flow cytometry on cancer cells
MEASURED_METRIC: binding result

BINDER: anti-CAPRIN-1 antibody (o) (antibody, V domains shown) VH: EVQLHQFGAELVKPGASVKISCKASGYTFTDYNMDWVKQSHGKSLEWIGDINPNYDSTSYNQKFKGKATLTVDKSSSTAYMELRSLTSEDTAVYYCARSRSYDYEGFAYWGQGTLVTVSA VL: DIQMTQSPASLSASVGETVTITCRASGNIHNYLAWYQQKQGKSPQLLVYNAKTLADGVPSRFSGSGSGTQYSLKINSLQPEDFGSYYCQHFWSTLTFGAGTKLELKR
DATA_VALUE: binds
--
BINDER: anti-CAPRIN-1 antibody (ah) (antibody, V domains shown) VH: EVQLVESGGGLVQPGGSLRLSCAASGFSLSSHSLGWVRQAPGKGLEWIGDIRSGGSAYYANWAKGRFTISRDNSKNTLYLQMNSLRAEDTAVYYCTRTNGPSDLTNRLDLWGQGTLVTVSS VL: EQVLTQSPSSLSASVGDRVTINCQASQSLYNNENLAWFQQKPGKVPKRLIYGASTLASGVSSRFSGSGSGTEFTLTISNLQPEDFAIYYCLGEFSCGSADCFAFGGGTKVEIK
DATA_VALUE: binds

Reference source for all entries: patent EP4640235A1
